B1: Zinc finger homeobox protein 3, residues 2147 to 2202; numbered along this chain, Q15911 (parent)
chain: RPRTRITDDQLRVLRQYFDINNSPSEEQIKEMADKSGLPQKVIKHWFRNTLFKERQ

# Variants of: B1
# protocolNotes: abundance fitness (aPCA) (normalised: wild type 0, dead -1); higher = more abundant; growth selection in yeast, the domain comes from the species named
# setupConditions: Homo sapiens
# binarize abundance fitness: threshold -0.4 inclusive, high side met, low side not met

Hi team, for I43D , is the recorded abundance fitness at or above -0.4?
not met

Hi team, for S36C , is the recorded abundance fitness at or above -0.4?
met

Hi team, for P2Y , is the recorded abundance fitness at or above -0.4?
met

Hi team, for P24T , is the recorded abundance fitness at or above -0.4?
not met

Hi team, for S25Y , is the recorded abundance fitness at or above -0.4?
met

Hi team, for R5H , is the recorded abundance fitness at or above -0.4?
met

Hi team, for N22E , is the recorded abundance fitness at or above -0.4?
met

Hi team, for D9Q , is the recorded abundance fitness at or above -0.4?
met

Hi team, for P39S , is the recorded abundance fitness at or above -0.4?
met

Hi team, for T4H , is the recorded abundance fitness at or above -0.4?
not met

Hi team, for P24G , is the recorded abundance fitness at or above -0.4?
not met

Hi team, for R48S , is the recorded abundance fitness at or above -0.4?
met

Hi team, for Y17Q , is the recorded abundance fitness at or above -0.4?
met

Hi team, for E27Q , is the recorded abundance fitness at or above -0.4?
met

Hi team, for L51H , is the recorded abundance fitness at or above -0.4?
met

Hi team, for T50Q , is the recorded abundance fitness at or above -0.4?
met

Hi team, for I20K , is the recorded abundance fitness at or above -0.4?
met

Hi team, for T7Q , is the recorded abundance fitness at or above -0.4?
met

Hi team, for Y17H , is the recorded abundance fitness at or above -0.4?
met

From: the Human Domainome abundance scans (Beltran et al. 2025)
